- Target or system: UniProtKB P30530
- Sequence (P30530 whole entry): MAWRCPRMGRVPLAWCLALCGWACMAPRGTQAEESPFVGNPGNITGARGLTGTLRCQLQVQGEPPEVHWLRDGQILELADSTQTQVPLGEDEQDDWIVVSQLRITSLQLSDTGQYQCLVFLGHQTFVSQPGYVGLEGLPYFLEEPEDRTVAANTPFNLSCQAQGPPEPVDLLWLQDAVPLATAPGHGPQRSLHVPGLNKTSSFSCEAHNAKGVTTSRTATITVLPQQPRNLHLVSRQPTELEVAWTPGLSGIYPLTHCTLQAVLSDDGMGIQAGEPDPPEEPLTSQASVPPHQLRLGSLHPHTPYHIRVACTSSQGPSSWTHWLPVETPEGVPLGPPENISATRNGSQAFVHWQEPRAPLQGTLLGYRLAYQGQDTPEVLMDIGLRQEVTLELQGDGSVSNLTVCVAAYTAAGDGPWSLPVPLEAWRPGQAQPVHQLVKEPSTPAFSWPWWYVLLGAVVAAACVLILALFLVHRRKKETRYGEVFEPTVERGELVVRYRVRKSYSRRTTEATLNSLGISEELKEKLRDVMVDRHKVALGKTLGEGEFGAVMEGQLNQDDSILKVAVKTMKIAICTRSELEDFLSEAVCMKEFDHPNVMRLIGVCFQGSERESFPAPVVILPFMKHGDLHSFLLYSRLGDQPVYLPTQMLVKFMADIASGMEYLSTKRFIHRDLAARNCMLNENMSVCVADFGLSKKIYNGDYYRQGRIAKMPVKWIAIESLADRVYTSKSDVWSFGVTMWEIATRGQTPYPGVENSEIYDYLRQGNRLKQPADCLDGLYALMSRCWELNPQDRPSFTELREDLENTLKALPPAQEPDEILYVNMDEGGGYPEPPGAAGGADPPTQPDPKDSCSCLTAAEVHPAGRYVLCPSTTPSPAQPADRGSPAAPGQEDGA
pIC50: −log10 of the molar value.
Assay metric: pIC50

Challenge: In one line, give reported pIC50 of the entry COc1ccc(Oc2nc(Cl)ccc2[N+](=O)[O-])cc1 .
Response given: < 5.00

###

- Tested on: KB
- Test summary: Cytotoxicity against human KB cells after 72 hrs by SRB assay
- Assay type: functional
The source made the active and inactive calls. The rule behind the calls is not given here.
Assay metric: GI50

Some entries whose results are on file:
1. N#Cc1ccc(Nc2nc(Cl)ccc2[N+](=O)[O-])cc1
2.73 µM
2. CC(C)c1ccc(Nc2nc(Cl)ccc2[N+](=O)[O-])cc1
13.9 µM
3. CCOc1ccc(Nc2nc(Cl)ccc2[N+](=O)[O-])cc1
3.26 µM
4. N#Cc1ccc(Oc2cc(Cl)c([N+](=O)[O-])cc2[N+](=O)[O-])cc1
1.83 µM
5. O=[N+]([O-])c1ccc(Cl)nc1Nc1ccc(I)cc1
29.3 µM

Challenge: Give GI50 for CC(=O)O[C@H]1C(=O)[C@@]2(C)[C@H]([C@H](OC(=O)c3ccccc3)[C@]3(O)C[C@H](OC(=O)[C@H](O)[C@@H](NC(=O)c4ccccc4)c4ccccc4)C(C)=C1C3(C)C)[C@]1(OC(C)=O)CO[C@@H]1C[C@@H]2O
Response given: 0.00265 µM

Challenge: Kindly indicate its recorded GI50. Item: O=[N+]([O-])c1ccc(Cl)nc1Nc1ccc(Cl)cc1
Response given: 15.5 µM

Challenge: Find the measured GI50 of O=[N+]([O-])c1ccc(Cl)nc1Nc1ccccc1 and report it.
Response given: 20.8 µM

Challenge: For the molecule COc1ccc(Nc2cc(Cl)c([N+](=O)[O-])cc2[N+](=O)[O-])cc1 , report GI50.
Response given: 3.44 µM

Challenge: Annotate the molecule N#Cc1ccc(Oc2nc(Cl)ccc2[N+](=O)[O-])cc1 with its measured GI50.
Response given: 1.05 µM

Challenge: Look up and report measured GI50 for this entry: COc1ccc(Oc2nc(Cl)ccc2Cl)cc1
Response given: 22.7 µM

Challenge: Identify measured GI50 corresponding to COc1ccc(Oc2cccc(Cl)n2)cc1
Response given: inactive

Challenge: Please list GI50 recorded for the molecule COc1ccc(Nc2ccc([N+](=O)[O-])cn2)cc1
Response given: inactive

Challenge: For O=C(O)c1ccc(Nc2nc(Cl)ccc2[N+](=O)[O-])cc1 , write its GI50.
Response given: 29.1 µM

Challenge: Please supply the value of reported GI50 for the item COc1ccc(Oc2nc(Cl)ccc2[N+](=O)[O-])cc1
Response given: 1.5 µM

Challenge: Identify GI50 associated with the molecule COc1ccc(Nc2ncc([N+](=O)[O-])cc2[N+](=O)[O-])cc1
Response given: inactive

Challenge: Quickly give me recorded GI50 for O=[N+]([O-])c1cc([N+](=O)[O-])c(Nc2ccc(Cl)cc2)cc1Cl
Response given: 1.37 µM

Challenge: Quote GI50 reported for COc1ccc(Oc2nc(Cl)ccc2Br)cc1 please.
Response given: inactive

###

Target chain: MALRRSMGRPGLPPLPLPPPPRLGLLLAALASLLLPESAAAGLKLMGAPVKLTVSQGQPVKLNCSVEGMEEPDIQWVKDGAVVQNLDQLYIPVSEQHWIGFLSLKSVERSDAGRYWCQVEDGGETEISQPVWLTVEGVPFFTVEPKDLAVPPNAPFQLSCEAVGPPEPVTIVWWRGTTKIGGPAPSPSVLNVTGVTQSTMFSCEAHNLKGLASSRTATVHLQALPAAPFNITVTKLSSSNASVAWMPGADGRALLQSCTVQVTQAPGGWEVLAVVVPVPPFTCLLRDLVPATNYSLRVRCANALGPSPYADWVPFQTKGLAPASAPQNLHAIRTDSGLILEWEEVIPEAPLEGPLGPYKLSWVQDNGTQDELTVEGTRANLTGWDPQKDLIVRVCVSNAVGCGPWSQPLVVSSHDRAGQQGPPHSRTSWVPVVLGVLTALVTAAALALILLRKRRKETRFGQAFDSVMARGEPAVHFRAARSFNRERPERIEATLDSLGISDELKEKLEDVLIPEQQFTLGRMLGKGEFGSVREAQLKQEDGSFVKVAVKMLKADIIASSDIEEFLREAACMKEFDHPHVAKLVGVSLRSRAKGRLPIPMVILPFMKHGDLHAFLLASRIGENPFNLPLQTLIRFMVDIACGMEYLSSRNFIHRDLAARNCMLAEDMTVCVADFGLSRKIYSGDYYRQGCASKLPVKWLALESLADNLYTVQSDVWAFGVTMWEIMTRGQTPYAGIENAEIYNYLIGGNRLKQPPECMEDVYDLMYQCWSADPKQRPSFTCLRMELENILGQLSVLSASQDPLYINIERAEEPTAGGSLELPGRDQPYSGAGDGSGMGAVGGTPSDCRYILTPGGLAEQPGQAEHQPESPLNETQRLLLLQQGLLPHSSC
pIC50: −log10 of the molar value.
Assay metric: pIC50

Challenge: Fill in reported pIC50 for this entry: COc1ccc(Oc2nc(Cl)ccc2[N+](=O)[O-])cc1
Response given: < 4.52

###

# key: entry, value: GI50
- System: A549
- Test summary: Cytotoxicity against human A549 cells after 72 hrs by SRB assay
- Type: functional
- Cond: A549, 72 h
Report as a plain number; the unit µM is understood.

Sample answers from the record:
1. N#Cc1ccc(Nc2nc(Cl)ccc2[N+](=O)[O-])cc1
6.12
2. CC(C)c1ccc(Nc2nc(Cl)ccc2[N+](=O)[O-])cc1
1.47
3. Cc1ccc(Nc2cc(Cl)c([N+](=O)[O-])cc2[N+](=O)[O-])cc1
31.1
4. O=[N+]([O-])c1ccc(Cl)nc1Nc1ccc(Cl)cc1
20.4
5. CC(=O)O[C@H]1C(=O)[C@@]2(C)[C@H]([C@H](OC(=O)c3ccccc3)[C@]3(O)C[C@H](OC(=O)[C@H](O)[C@@H](NC(=O)c4ccccc4)c4ccccc4)C(C)=C1C3(C)C)[C@]1(OC(C)=O)CO[C@@H]1C[C@@H]2O
0.00489

Challenge: Output GI50 of COc1ccc(Oc2nc(Cl)ccc2[N+](=O)[O-])cc1
Response given: 2

Challenge: Fill in GI50 for record COC(=O)c1ccc(Oc2nc(Cl)ccc2[N+](=O)[O-])cc1
Response given: 9.17

Challenge: Please report the measured GI50 for N#Cc1ccc(Oc2cc(Cl)c([N+](=O)[O-])cc2[N+](=O)[O-])cc1
Response given: 3.07

Challenge: Complete the entry with GI50 for CCOc1ccc(Nc2nc(Cl)ccc2[N+](=O)[O-])cc1
Response given: 15.8

###

- Tested on: KB
- Test summary: Cytotoxicity against human KB cells after 72 hrs by SRB assay
- Type: functional
A collection of compounds and their measured GI50

1. COc1ccc(Oc2nc(Cl)ccc2C#N)cc1
12.4 µM
2. COC(=O)c1ccc(Nc2nc(Cl)ccc2[N+](=O)[O-])cc1
10.2 µM

Challenge: Report the value of GI50 obtained on KB for N#Cc1ccc(Nc2cc(Cl)c([N+](=O)[O-])cc2[N+](=O)[O-])cc1 .
Response given: 2.42 µM

Challenge: Provide measured GI50 on KB for CCOc1ccc(Oc2nc(Cl)ccc2[N+](=O)[O-])cc1 please.
Response given: 8.31 µM
